Each item that follows carries a reported residual activity.
- TARGET SYSTEM: PNCK (human) (UniProt Q6P2M8)
- Sequence (Q6P2M8 whole entry, looked up): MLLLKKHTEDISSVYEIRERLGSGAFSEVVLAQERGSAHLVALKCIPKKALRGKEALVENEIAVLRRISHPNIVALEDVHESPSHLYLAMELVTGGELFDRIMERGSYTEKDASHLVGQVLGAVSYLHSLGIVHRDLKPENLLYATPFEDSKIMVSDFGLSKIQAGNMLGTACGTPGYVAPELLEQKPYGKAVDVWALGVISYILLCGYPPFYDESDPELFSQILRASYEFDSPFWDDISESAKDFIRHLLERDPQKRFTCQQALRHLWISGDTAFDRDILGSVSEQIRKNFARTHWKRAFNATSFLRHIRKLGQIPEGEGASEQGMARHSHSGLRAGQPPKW
- PROCEDURE SUMMARY: radiometric filter-binding kinase assay, Kinase HotSpot
- CONDITION SUMMARY: compound 0.5 µM; ATP 10 µM
Unit % implied. Number only.

Example entries begin here.
CCn1cnc2c(Nc3cccc(Cl)c3)nc(N[C@@H]3CCCC[C@@H]3N)nc21; 98.5
CCN(CC)CCCCN1c2ccccc2Oc2ccc(Cl)cc21; 107
CN(C)C[C@H]1CCn2c(c(C3=C(c4cn(C)c5ccccc45)C(=O)NC3=O)c3ccccc32)C1; 95.2

Prompt: Field: residual activity (PNCK (human) (UniProt Q6P2M8)). Entry: `Cn1cnc2cc3c(Nc4cccc(Br)c4)ncnc3cc21`
Completion: 101

Prompt: Test system PNCK (human) (UniProt Q6P2M8); read-out residual activity; what value for `O=C1NC(=O)C(c2c[nH]c3ccccc23)=C1c1c[nH]c2ccccc12` ?
Completion: 93.3

Prompt: Which residual activity is reported with PNCK (human) (UniProt Q6P2M8) for this entry: `CC(=O)O/N=C1\C(=C2\C(=O)Nc3cc(Br)ccc32)Nc2ccccc21` ?
Completion: 96.3

Prompt: Query the reported residual activity for PNCK (human) (UniProt Q6P2M8); item: `O=C1Cc2c([nH]c3ccc(Br)cc23)-c2ccccc2N1`
Completion: 99.6
